This listing pairs compounds with measured growth.
- System: MDA-MB-468 breast
- experiment: NCI-60 one-dose screen, 48 h (100 = growth as untreated, 0 = no growth, -100 = all killed)
- run parameters: 10 µM unless noted
The panel holds about 83,000 compounds, 20% with a hit somewhere; the sample as a whole holds those more often.

compound | growth (%)
Cc1ccc(C)c2c1sc1nc3nc4sc5ccccc5n4c(=N)c3c(=O)n12 | 88.7
Cc1ccc2cc3c(NC(=O)c4cccnc4)nn(C)c3nc2c1 | 80.3
C1CCC(C(CC2CCCCN2)C2CCCCC2)CC1 (stereo unspecified) | -90.1
CCCC1(CN2c3ccccc3Sc3ccc(Cl)cc32)CCN(CC)C1 (stereo unspecified) | -64.2
COc1ccc(C2=CC(c3ccc(OC)cc3Br)N3C=CSC3=N2)cc1 (stereo unspecified) | 17.4
O=C(Nc1ccc(I)cc1F)c1cc(Cl)ccc1O | -1.5
Fc1cnccc1-c1nc2ccc3[nH]ncc3c2c2c1CCCC2 | 1.78
CS(=O)(=O)c1c(Nc2ccccc2)n[nH]c1N | 110
CN1CCCCC1CCN1c2ccccc2Sc2ccc(Br)cc21 (stereo unspecified) | 32.1
O=S(=O)(NCCCNc1nccc(-c2c(-c3ccccc3)nc3occn23)n1)c1ccc(Cl)cc1 | 67.1
Nc1cc(C(F)(F)F)c(-c2cc(N3CCOCC3)nc(N3CCOCC3)n2)cn1 | -51.6

Cited source: PubChem BioAssay (NCI)
